- System: E. coli K1 strain UTI89
- assay.remarks: Secondary assay 2: T7 phage-mediated lysis assay
- Assay type: cell-based, Escherichia coli
- particulars: Escherichia coli, purchased analogue series, n = 2; read-out: T7 phage IC50
recorded.endpoint: IC50

Inquiry: Which measured IC50 value corresponds to CCOc1ccc(-c2cc(NC(=O)c3c(F)cccc3F)c(C(=O)O)s2)cc1 [ML317] ?
Reply text: < 390 nM

---

Could you please report measured IC50 for the items listed next?
- Test system: E. coli K1 strain UTI89
- assay.remarks: microbe, parasite or virus in culture
- particulars: read-out: K1 phage IC50; second round of synthetic analogues, n = 3
In your response, put the unit directly after the numeric value.

Worked cases, IC50 given:
> print(dat)
                                chem.smiles            system.tested  recorded.measurement
1  O=C(O)c1sc(-c2ccc(OCCC(F)(F)F)cc2)cc1NC(=O)c1c(F)cc(F)cc1F  E. coli K1 strain UTI89               3.11 µM
2  [N-]=[N+]=NCCOc1ccc(-c2cc(NC(=O)c3c(F)cccc3F)c(C(=O)O)s2)cc1  E. coli K1 strain UTI89               17.5 µM
3  O=C(Nc1cc(-c2ccc(OCCCC(F)(F)F)cc2)sc1C(=O)O)c1ccc(Br)o1  E. coli K1 strain UTI89               1.78 µM

Now examine the next entry.
Inquiry: Which measured IC50 value corresponds to O=C(O)c1sc(-c2ccc(OCC(F)(F)F)cc2)cc1NC(=O)c1c(F)cc(F)cc1F ?
Reply text: 94.9 µM
